Data origin, for the record: patent US9309239B2

test.protocol: Pharmacokinetic parameters following intravenous administration in rats
Format: in vivo, male Wistar rats
condition.description: male, Wistar, rat, plasma, intravenous administration of 0.3 mg/kg

{"mol.smiles": "COC(=O)Nc1c(N)nc(-n2nc(Cc3ccccc3F)c3ncc(F)cc32)nc1N", "half-life, min": 82.8}
